- Experimental Protocol: compound binding in COS7 lysate, probe aLAP1, primary screen, cell lysate, small-molecule microarray (AID 1124);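 note: lysate comes from COS7 cells expressing LAP1 and is applied at 0.3 µg/mL; score merges spot fluorescence near 667 nm with signal-to-noise over triplicate slides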
- Assay Conditions: probe aLAP1, fluorescence, higher = more signal
Please use condition met whenever composite z-score is not below 0.2, and condition not met whenever it is.

Some solved entries appear below for comparison.
{"Molecule": "[N-]=[N+]=NCc1ccccc1[C@H]1OC(c2ccc(OCCCO)cc2)=N[C@@]1(Cc1ccccc1)C(=O)NCCN1CCOCC1", "Label Class": "condition met"}
{"Molecule": "C=C[C@@H](C)[C@H](O)c1ccc(OCCO)cc1", "Label Class": "condition not met"}
{"Molecule": "CCN(CC)c1ccc(N2CC=CC34O[C@@H]5/C=C\\CCC(C)OC(=O)C5[C@H]3C(=O)N(C(C)CO)[C@@H]4C2=O)cc1 (some centres undefined)", "Label Class": "condition not met"}
{"Molecule": "CO[C@H]1O[C@H](CO)[C@@H](OC(=O)c2ccc(Br)cc2)[C@@H]2OC(=O)[C@H](Cc3ccccc3)C/C=C/C[C@@H](Cc3ccccc3)C(=O)O[C@@H]12", "Label Class": "condition met"}
{"Molecule": "COc1cc(NN2C(C(O)C3CCCCC3)C=CC3C(=O)N(C)C(=O)C32)cc(OC)c1OC (centres undefined)", "Label Class": "condition met"}
{"Molecule": "CCCCC=C[C@@H](NC(=O)c1ccccc1)c1ccccc1", "Label Class": "condition not met"}
{"Molecule": "CCOC(=O)C[C@H]1[C@H](OC(=O)c2ccccc2-c2ccccc2)[C@@H](NC(=O)c2ccc3ccccc3n2)c2cc(OCCCO)ccc2N1C(=O)c1ccccc1", "Label Class": "condition not met"}
{"Molecule": "C=C(/C(=C/C[C@@H](OC(=O)c1ccncc1)c1cccc(OCCO)c1)c1cnc2ccccc2c1)C(C)C", "Label Class": "condition met"}
{"Molecule": "COCCOC(=O)N1C(=O)[C@@]2(c3ccccc31)[C@H](c1ccccc1OCCO)N1[C@H](c3ccccc3)[C@H](c3ccccc3)OC(=O)[C@H]1[C@@H]2C(N)=O", "Label Class": "condition met"}
{"Molecule": "NC(=O)[C@H]1[C@@H]2C(=O)O[C@@H](c3ccccc3)[C@@H](c3ccccc3)N2[C@@H](c2ccc(O)cc2)[C@]12C(=O)Nc1ccccc12", "Label Class": "condition not met"}

Ask: Does the molecule "CCCCC(=C=CC[C@H](O)c1ccc(OCCO)cc1)C[C@H](O)c1cc(Cl)cc(Cl)c1O" have recorded composite z-score that is 0.2 or more?
Reply: condition not met

Ask: Determine whether this molecule has composite z-score no lower than 0.2: "COc1ccc([Si](C)(C)[C@H]2[C@H](CC(=O)N3Cc4ccccc4C[C@H]3CO)O[C@@]3(C(=O)N(Cc4ccc(N5C(=O)c6cccc7cccc5c67)cc4)c4ccccc43)[C@@H]2C)cc1"
Reply: condition met

Ask: Has "Cc1ccc(S[C@]2(C(=O)NCc3ccccc3)CC(=O)N(Cc3cc(C(F)(F)F)cc(C(F)(F)F)c3)[C@@H]2c2ccc(CO)cc2I)cc1" a recorded composite z-score greater than or equal to 0.2?
Reply: condition not met

Ask: Please tell me: is the molecule "O=C1O[C@H](c2ccccc2)[C@H](c2ccccc2)N2[C@H]1[C@@H](C(=O)N1CCCCCCC1)[C@]1(C(=O)Nc3ccc(C#CC4(O)CCCCCC4)cc31)[C@H]2c1ccc(O)cc1" at or over 0.2 in terms of composite z-score?
Reply: condition met

* * *

- Test system: Sam68 (KHDRBS1)
- Experimental Protocol: Sam68 small-molecule binders, primary screen, biochemical, small-molecule microarray, 635 nm fluorescence (AID 1125);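 note: score merges 667 nm channel intensity with signal to noise over triplicate slides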
- Assay Conditions: small-molecule microarray binding, higher = more signal
Below, each of the compounds is paired with its reported composite z-score value.
API note: the answer field is a bare number with no unit suffix.

The examples below pair each entry with its known result.
{"Compound": "CCOC(=O)C=Cc1ccccc1O", "composite z-score": 1.01}
{"Compound": "COC(=O)[C@@]1(Cc2ccccc2)[C@H]2c3cc(C(=O)N4CCCC4)n(CCSCCO)c3C[C@H]2CN1C(=O)c1ccccc1", "composite z-score": 1.12}
{"Compound": "CCN(CC)c1ccc(N2CC=CC34O[C@@H]5/C=C\\CCC(C)OC(=O)C5[C@H]3C(=O)N(C(C)CO)[C@@H]4C2=O)cc1 (stereo partly drawn)", "composite z-score": -0.0199}
{"Compound": "C=C(COC)C(=O)CC[C@H](OC(=O)c1cccnc1)c1ccc(CO)o1", "composite z-score": 0.558}
{"Compound": "O=C1O[C@H](c2ccccc2)[C@H](c2ccccc2)N2[C@H]1[C@@H](C(=O)N1CCCCCCC1)[C@]1(C(=O)Nc3ccc(C#CC4(O)CCCCCC4)cc31)[C@H]2c1ccc(O)cc1", "composite z-score": 1.29}
{"Compound": "COCCOC(=O)N1C(=O)[C@@]2(c3cc(C#CCNC(N)=O)ccc31)[C@H](c1ccc(O)cc1)N1[C@H](c3ccccc3)[C@H](c3ccccc3)OC(=O)[C@H]1[C@@H]2C(N)=O", "composite z-score": -0.344}
{"Compound": "COC(=O)C1N=C(c2ccc(OCCCO)cc2)N(c2ccccc2)O1 (stereo not drawn)", "composite z-score": 1.14}

Ask: Recorded composite z-score of "[N-]=[N+]=NCc1ccccc1[C@H]1OC(c2ccc(OCCCO)cc2)=N[C@@]1(Cc1ccccc1)C(=O)NCCN1CCOCC1" , please.
Reply: 1.3

* * *

- Tgt: Torsin-1A-interacting protein 2 (Homo sapiens) (UniProt Q8NFQ8)
- Sequence (Q8NFQ8 whole entry, looked up): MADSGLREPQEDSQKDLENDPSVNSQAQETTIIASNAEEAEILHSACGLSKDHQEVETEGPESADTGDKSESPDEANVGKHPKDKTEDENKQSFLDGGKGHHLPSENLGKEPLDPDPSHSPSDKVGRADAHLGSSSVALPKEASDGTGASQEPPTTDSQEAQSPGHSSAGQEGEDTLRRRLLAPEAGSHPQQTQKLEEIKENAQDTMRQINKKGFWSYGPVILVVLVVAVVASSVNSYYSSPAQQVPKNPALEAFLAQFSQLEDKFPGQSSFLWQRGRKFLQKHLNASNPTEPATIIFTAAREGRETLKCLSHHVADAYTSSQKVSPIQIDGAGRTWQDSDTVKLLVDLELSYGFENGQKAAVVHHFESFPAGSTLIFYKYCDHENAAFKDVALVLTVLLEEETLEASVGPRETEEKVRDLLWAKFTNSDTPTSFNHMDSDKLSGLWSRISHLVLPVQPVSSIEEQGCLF
- Experimental Protocol: LULL1 binders on small-molecule microarray, primary screen, cell lysate, human LULL1 lysate, 635/667 nm fluorescence (AID 1092);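 note: probe is lysate of COS7 cells overexpressing human LULL1; score merges per-feature 667 nm fluorescence with signal-to-noise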
- Assay Conditions: hLULL1 lysate binding, 635 nm fluorescence, higher = more signal
Quick rule for you: composite z-score at 2 or higher means rule met, lower means rule not met.

Worked examples, 2 compounds total:
{"Compound": "O=C(O)[C@@H]1C[C@@H]2C(=O)N3CCC[C@H]3C(=O)N2[C@@H]1c1cccc(OCCO)c1", "Label Class": "rule met"}
{"Compound": "COC(=O)[C@@]1(Cc2ccccc2CN=[N+]=[N-])N=C(c2ccc(OCCCO)cc2)O[C@H]1c1ccccc1CN=[N+]=[N-]", "Label Class": "rule not met"}

Ask: Does the reported composite z-score for C=C(C)C1CCC(C(O)C2C=CC3C(=O)N(C)C(=O)C3N2Nc2cc(OC)c(OC)c(OC)c2)CC1 (stereo not drawn) fall at or above the 2 mark?
Reply: rule met

Ask: Has "O=C1c2ccccc2[C@](Cc2ccccc2I)(C(=O)NC2CC2)[C@H](c2ccc(CO)cc2)N1Cc1ccccc1C(F)(F)F" a recorded composite z-score greater than or equal to 2?
Reply: rule met

Ask: Answer whether composite z-score of "O=C(O)[C@H]1C[C@H]2C(=O)N[C@@H](Cc3ccccc3)C(=O)N2[C@H]1c1cccc(OCCO)c1" is greater than or equal to 2.
Reply: rule met

Ask: Identify whether the reported composite z-score of the following compound is 2 or greater: "Cc1ccc(S[C@]2(C(=O)NC(C)C)CC(=O)N(C(C)C)[C@@H]2c2ccc(CO)cc2I)cc1"
Reply: rule not met

Ask: Does the reported composite z-score for COc1cc2c(cc1O)C(c1ccc(CN3CCCC3)cc1)N(C)CC2 (stereo not drawn) fall at or above the 2 mark?
Reply: rule not met

Ask: Reported composite z-score at or above 2? "C=C(CCCC)/C(=C/C[C@H](OC(C)=O)c1ccc(OCCO)cc1)c1cc(C(=O)OC)ccc1OC"
Reply: rule met

* * *

- Experimental Protocol: inhibitors of hydroxyurea-induced Chk1 phosphorylation, primary screen, imaging, HeLa, phospho-Chk1 nuclear intensity (AID 1187); note: test concentration not given here
- Assay Conditions: hydroxyurea-induced phospho-Chk1 immunofluorescence imaging, higher = more signal
Activity calls are given as the source filed them. The rule behind the calls is not given here.
z-score listing for selected molecules.

Sample records with z-score:
{"Compound": "CN(C)CCCC[C@@H]1NC(=O)[C@@H]2C[C@H](C(=O)O)[C@H](c3cccc(OCCO)c3)N2C1=O", "Test Result": "0.313 (inactive)"}
{"Compound": "CN(C)C(=O)[C@@]1(CCC(=O)OC(C)(C)C)N=C(c2ccc(OCCCO)cc2)O[C@H]1c1ccccc1CN=[N+]=[N-]", "Test Result": "0.422 (inactive)"}
{"Compound": "C=C(CCCC)C(=O)CC[C@@H](OC(=O)c1cccnc1)c1ccc(OCCO)cc1", "Test Result": "1.21 (inactive)"}

Here's the next entry for you.
Ask: Tell me the measured z-score of "CCOC(=O)C[C@H]1[C@H](OC(=O)c2ccc(-c3ccccc3)cc2)[C@@H](NC(=O)Cc2ccc(OC)cc2)c2cc(OCCCO)ccc2N1C(=O)Cc1ccc(OC)cc1" , please.
Reply: 0.0566 (inactive)

* * *

- Experimental Protocol: small-molecule microarray binders of probe aWnt5a, primary screen, biochemical, biotinylated probe, 635/667 nm fluorescence (AID 1113);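 note: score merges 667 nm fluorescence intensity with signal-to-noise per printed feature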
- Assay Conditions: higher = more signal
Each entry below lists one item and its recorded composite z-score value.
Keep it simple and answer with nothing but the number.

{"Compound": "CC1(C)C(=O)C(c2ccccc2)=C2CN3C(=O)N(CCc4ccccc4)C(=O)C3(Cc3ccc(C(F)(F)F)cc3)C=C21 (configuration not stated)", "composite z-score": 0.0226}
{"Compound": "NC(=O)[C@H]1[C@@H]2C(=O)O[C@@H](c3ccccc3)[C@@H](c3ccccc3)N2[C@@H](c2ccc(O)cc2)[C@]12C(=O)Nc1ccc(C#CC3=CCCCC3)cc12", "composite z-score": -0.0792}
{"Compound": "[N-]=[N+]=Nc1ccccc1[C@@H]1OC(c2ccc(OCCCO)cc2)=N[C@]1(Cc1ccccc1)C(=O)NCc1ccccc1", "composite z-score": 0.166}
{"Compound": "CC(C)[C@H]1NC(=O)[C@@]23C(=O)N[C@@H](Cc4ccccc4)C2[C@H](C)[C@@]2(C)O[C@H]2C3/C=C/C/C=C\\CNC(=O)[C@H](Cc2ccccc2)NC1=O (some centres not stated)", "composite z-score": -0.158}
{"Compound": "CO[C@H]1O[C@H](CO)[C@@H](OC(=O)c2ccc(Br)cc2)[C@@H]2OC(=O)[C@H](Cc3ccccc3)C/C=C/C[C@@H](Cc3ccccc3)C(=O)O[C@@H]12", "composite z-score": -0.275}

Ask: Reported composite z-score for "C[C@]1(C(=O)O)c2ccccc2C(=O)N(Cc2ccc(OC(F)(F)F)cc2)[C@H]1c1ccc(CO)cc1" : what is it?
Reply: -0.129

Ask: What measured composite z-score goes with CCOC(=O)C1=CCC(c2ccccc2)N(S(=O)(=O)c2ccc([N+](=O)[O-])cc2)C1 (configuration not stated) ?
Reply: -0.147
